The measurements presented in this section are drawn from the NIST ThermoML archive (doi:10.1021/je700670k).

applied.conditions: 303.15 K; 30000 kPa; Liquid; Vibrating tube method
measurement.name: mass density (kg/m3)
Answers are plain numbers, in kg/m3.

// below: answered molecules
INSERT INTO results (molecule, test_result) VALUES
  ('CCC[N+]1(C)CCCCC1.O=S(=O)([N-]S(=O)(=O)C(F)(F)F)C(F)(F)F', 1427.6),
  ('CCC[n+]1cccc(C)c1.O=S(=O)([N-]S(=O)(=O)C(F)(F)F)C(F)(F)F', 1466.6),
  ('CCCC[N+]1(C)CCCC1.O=S(=O)([N-]S(=O)(=O)C(F)(F)F)C(F)(F)F', 1420.3),
  ('CCC[N+]1(C)CCCC1.O=S(=O)([N-]S(=O)(=O)C(F)(F)F)C(F)(F)F', 1449.7);

Pending molecule:
Give the reported value of mass density for this record: CCn1cc[n+](C)c1.O=S(=O)([O-])C(F)(F)F [1-ethyl-3-methylimidazolium trifluoromethanesulfonate]
1387.5

---

applied.conditions: 313.15 K; 15000 kPa; Liquid; Vibrating tube method
Exercise: for every item that follows, state its recorded mass density.
One number for each entry, in kg/m3.

// below: answered compounds
INSERT INTO assay_data (compound, unit_annotation, test_result) VALUES
  ('CCC[N+]1(C)CCCCC1.O=S(=O)([N-]S(=O)(=O)C(F)(F)F)C(F)(F)F', 'kg/m3', 1408.2),
  ('CCC[N+]1(C)CCCC1.O=S(=O)([N-]S(=O)(=O)C(F)(F)F)C(F)(F)F', 'kg/m3', 1429.9);

Can you give me mass density for all of these, one by one?
1. CCCC[N+]1(C)CCCC1.O=S(=O)([N-]S(=O)(=O)C(F)(F)F)C(F)(F)F
2. CCn1cc[n+](C)c1.O=S(=O)([O-])C(F)(F)F [1-ethyl-3-methylimidazolium trifluoromethanesulfonate]

1400.7
1370.2

Give the reported value of mass density for this record: CCC[n+]1cccc(C)c1.O=S(=O)([N-]S(=O)(=O)C(F)(F)F)C(F)(F)F
1445.7

---

Exercise: for every item that follows, state its recorded mass density.
applied.conditions: 323.15 K; 15000 kPa; Liquid; Vibrating tube method
One number for each entry, in kg/m3.

INSERT INTO assay_data (compound, unit_annotation, test_result) VALUES
  ('CCC[n+]1cccc(C)c1.O=S(=O)([N-]S(=O)(=O)C(F)(F)F)C(F)(F)F', 'kg/m3', 1435.7),
  ('CCCC[N+]1(C)CCCC1.O=S(=O)([N-]S(=O)(=O)C(F)(F)F)C(F)(F)F', 'kg/m3', 1391.3),
  ('CCn1cc[n+](C)c1.O=S(=O)([O-])C(F)(F)F [1-ethyl-3-methylimidazolium trifluoromethanesulfonate]', 'kg/m3', 1361.2);

Can you give me mass density for all of these, one by one?
1. CCC[N+]1(C)CCCC1.O=S(=O)([N-]S(=O)(=O)C(F)(F)F)C(F)(F)F
2. CCC[N+]1(C)CCCCC1.O=S(=O)([N-]S(=O)(=O)C(F)(F)F)C(F)(F)F

[1420.1, 1398.7]

---

applied.conditions: 303.15 K; 2000 kPa; Liquid; Vibrating tube method
Numbers after ± are expanded uncertainties.
measurement.name: mass density

// below: answered compounds
INSERT INTO measurements (compound, test_result) VALUES
  ('CCC[N+]1(C)CCCC1.O=S(=O)([N-]S(=O)(=O)C(F)(F)F)C(F)(F)F', '1430 ± 12 kg/m3'),
  ('CCC[n+]1cccc(C)c1.O=S(=O)([N-]S(=O)(=O)C(F)(F)F)C(F)(F)F', '1446.1 ± 12 kg/m3'),
  ('CCC[N+]1(C)CCCCC1.O=S(=O)([N-]S(=O)(=O)C(F)(F)F)C(F)(F)F', '1408.6 ± 12 kg/m3'),
  ('CCn1cc[n+](C)c1.O=S(=O)([O-])C(F)(F)F [1-ethyl-3-methylimidazolium trifluoromethanesulfonate]', '1371.5 ± 12 kg/m3');

Give the reported value of mass density for this record: CCCC[N+]1(C)CCCC1.O=S(=O)([N-]S(=O)(=O)C(F)(F)F)C(F)(F)F
1400.7 ± 12 kg/m3
